# collection of Kd values tested on CRK-1 SH3 domain (aa 132-192) (Homo sapiens)
# Sequence (P46108 132-192): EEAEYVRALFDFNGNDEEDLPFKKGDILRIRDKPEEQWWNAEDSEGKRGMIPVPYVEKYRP
Peptide text beside a SMILES is read from it.
recorded_endpoint: Kd

compound: CC[C@H](C)[C@H](N)C(=O)N[C@@H](C)C(=O)NCC(=O)N1CCC[C@H]1C(=O)N1CCC[C@H]1C(=O)N[C@H](C(=O)N1CCC[C@H]1C(=O)N1CCC[C@H]1C(=O)N[C@@H](CCCNC(=N)N)C(=O)N[C@@H](CCC(N)=O)C(=O)N[C@@H](CO)C(=O)O)C(C)C [Peptide P9] (H-IAGPPVPPRQS-OH)
result: > 200 µM
//
compound: CC(C)C[C@H](NC(=O)[C@H](Cc1c[nH]cn1)NC(=O)[C@H](CC(C)C)NC(=O)[C@@H]1CCCN1C(=O)[C@H](CO)NC(=O)[C@H](CO)NC(=O)[C@@H](N)CO)C(=O)N[C@@H](CCC(N)=O)C(=O)N1CCC[C@H]1C(=O)N1CCC[C@H]1C(=O)N1CCC[C@H]1C(=O)N[C@@H](CC(C)C)C(=O)NCC(=O)N[C@@H](CCCCN)C(=O)N[C@@H](CCCCN)C(=O)O [Peptide P6] (H-SSSPLHLQPPPLGKK-OH; N-terminus and C-terminus assumed)
result: > 200 µM
//
compound: CC(C)C[C@H](NC(=O)[C@@H]1CCCN1C(=O)[C@@H]1CCCN1C(=O)[C@H](CO)NC(=O)[C@@H]1CCCN1C(=O)[C@H](CC(C)C)NC(=O)[C@H](Cc1c[nH]cn1)NC(=O)[C@@H](N)CCCNC(=N)N)C(=O)N[C@H](C(=O)N[C@@H](CCC(N)=O)C(=O)O)[C@@H](C)O [Peptide P8] (H-RHLPSPPLTQ-OH; N-terminus and C-terminus assumed)
result: > 200 µM
//
compound: CC(C)C[C@H](NC(=O)[C@@H]1CCCN1C(=O)[C@@H](NC(=O)[C@H](CCCNC(=N)N)NC(=O)[C@@H]1CCCN1C(=O)[C@H](CO)NC(=O)[C@H](CC(N)=O)NC(=O)[C@@H]1CCCN1C(=O)[C@H](C)NC(=O)[C@@H](N)CO)[C@@H](C)O)C(=O)N[C@H](C(=O)N1CCC[C@H]1C(=O)N1CCC[C@H]1C(=O)N1CCC[C@H]1C(=O)N[C@@H](C)C(=O)N[C@@H](CO)C(=O)O)[C@@H](C)O [Peptide P1] (H-SAPNSPRTPLTPPPAS-OH)
result: > 200 µM
